Entries annotated with measured pIC50
# Target of assay: UniProt P30542
# Sequence (P30542 1-326): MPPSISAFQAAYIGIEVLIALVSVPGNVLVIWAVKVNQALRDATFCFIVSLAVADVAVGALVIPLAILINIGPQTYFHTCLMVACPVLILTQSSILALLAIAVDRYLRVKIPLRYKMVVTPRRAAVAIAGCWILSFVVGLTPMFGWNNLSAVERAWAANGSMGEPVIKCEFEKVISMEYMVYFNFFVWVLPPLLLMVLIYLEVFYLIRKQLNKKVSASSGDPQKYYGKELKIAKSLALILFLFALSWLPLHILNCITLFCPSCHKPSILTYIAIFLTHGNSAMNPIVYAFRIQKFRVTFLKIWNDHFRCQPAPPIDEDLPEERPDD
# Method notes: biochemical
# Condition info: IC50 Mean, mean of 1.M and 2.M
Quick note: pIC50 means taking -log10 of the concentration in moles per liter.

Examples with answers:
O=c1c(O)c(-c2ccc(O)cc2)oc2cc(O)cc(O)c12
4.89
O=c1c(-c2ccc(O)cc2)coc2cc(O)cc(O)c12
4.60
O=c1cc(-c2ccc(O)cc2)oc2cc(O)cc(O)c12
4.41
O=C1C[C@@H](c2ccc(O)cc2)Oc2cc(O)cc(O)c21
4.52

Report pIC50 for O=c1cc(-c2ccccc2)oc2ccccc12 please. 4.80

Fill blank: measured pIC50 of the compound COc1c(O)cc2oc(-c3ccc(O)cc3)cc(=O)c2c1O is ____. 4.46

Consider the compound shown here: O=c1c(O)c(-c2ccccc2)oc2cc(O)cc(O)c12 What is its recorded pIC50? 5.24

###

# Target of assay: UniProt P30542
# Method notes: biochemical
# Condition info: IC50 2.M, second measurement; [3H]-DPCPX 1 nM, 60 min, 27°C
Below, each entry is listed alongside its reported IC50.
Give the number; µM is assumed, so skip it.

Illustrative cases are given below, each with its answer.
O=C1C[C@@H](c2ccc(O)cc2)Oc2cc(O)cc(O)c21
32
O=c1c(-c2ccc(O)cc2)coc2cc(O)cc(O)c12
25
O=c1cc(-c2ccc(O)cc2)oc2cc(O)cc(O)c12
45
O=c1c(O)c(-c2ccc(O)cc2)oc2cc(O)cc(O)c12
12
O=c1cc(-c2ccccc2)oc2ccccc12
16
O=c1c(O)c(-c2ccccc2)oc2cc(O)cc(O)c12
5.1

I have this compound here, COc1c(O)cc2oc(-c3ccc(O)cc3)cc(=O)c2c1O , and I need its recorded IC50. 36

So what's the measured IC50 for this one? COc1cc2oc(-c3ccc(O)cc3)cc(=O)c2c(O)c1OC 122

###

# Target of assay: Human adenosine A1 receptors (Homo sapiens)
# Sequence (P30542 1-326): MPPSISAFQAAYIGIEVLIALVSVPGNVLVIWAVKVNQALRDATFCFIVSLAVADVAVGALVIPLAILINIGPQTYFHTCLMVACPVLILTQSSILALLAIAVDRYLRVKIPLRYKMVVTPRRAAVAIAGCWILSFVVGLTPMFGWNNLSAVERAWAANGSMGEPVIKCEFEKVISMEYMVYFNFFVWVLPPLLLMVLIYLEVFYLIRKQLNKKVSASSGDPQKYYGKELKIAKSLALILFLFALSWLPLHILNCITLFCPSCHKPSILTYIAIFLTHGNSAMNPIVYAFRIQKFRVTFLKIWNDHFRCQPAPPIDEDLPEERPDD
# Method notes: biochemical
# Condition info: IC50 1.M, first measurement; [3H]-DPCPX 1 nM, 60 min, 27°C
Measured quantity: pIC50
Hey, just a heads up that pIC50 is the negative log base 10 of the concentration in molar.

Look up pIC50: COc1c(O)cc2oc(-c3ccc(O)cc3)cc(=O)c2c1O [Hispidulin] 4.47

// lookup pIC50 for O=c1c(O)c(-c2ccccc2)oc2cc(O)cc(O)c12 [Galangin] 5.21

Field request: pIC50 | item: O=c1cc(-c2ccccc2)oc2ccccc12 [Flavone, 2-phenylchromen-4-one] 4.80

So what's the measured pIC50 for this one? O=C1C[C@@H](c2ccc(O)cc2)Oc2cc(O)cc(O)c21 [Naringenin] 4.57

Quick check: pIC50 of O=c1cc(-c2ccc(O)cc2)oc2cc(O)cc(O)c12 [Apigenin] ? 4.49

###

# Target of assay: human adenosine A2A receptors (Homo sapiens, UniProt P29274)
# Sequence (P29274 whole entry): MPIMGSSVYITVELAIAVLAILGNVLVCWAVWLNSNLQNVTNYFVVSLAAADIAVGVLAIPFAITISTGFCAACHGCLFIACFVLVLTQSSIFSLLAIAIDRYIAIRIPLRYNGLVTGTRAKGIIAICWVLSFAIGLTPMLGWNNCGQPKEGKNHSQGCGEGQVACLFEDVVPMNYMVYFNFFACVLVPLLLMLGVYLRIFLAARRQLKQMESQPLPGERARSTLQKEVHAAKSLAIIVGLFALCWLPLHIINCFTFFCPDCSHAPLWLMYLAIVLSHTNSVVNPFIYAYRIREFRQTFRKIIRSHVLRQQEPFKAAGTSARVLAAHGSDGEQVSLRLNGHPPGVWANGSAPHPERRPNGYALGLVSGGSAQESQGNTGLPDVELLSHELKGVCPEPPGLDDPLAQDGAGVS
# Method notes: Human recombinant A2A assay ([35S]-GTPγS binding, HEK293 background)
# Format: biochemical
# Design: purchased PerkinElmer (Rodgau, Germany) RBHA2AM400UA; host or cells: HEK293 cell membranes
# Condition info: basal signal / background in HEK293 cells; read-out: EC50 values, effect on the basal signal in the human recombinant A2A assay
# Excerpt: Both signal transduction pathways are in principle detectable by the GTPγS technique.
Measured quantity: EC50

// query EC50 value for entry O=c1c(O)c(-c2ccccc2)oc2cc(O)cc(O)c12 ~300 µM

###

# Target of assay: Adenosine A2A Receptor (Rattus norvegicus)
# Sequence (P30543 whole entry): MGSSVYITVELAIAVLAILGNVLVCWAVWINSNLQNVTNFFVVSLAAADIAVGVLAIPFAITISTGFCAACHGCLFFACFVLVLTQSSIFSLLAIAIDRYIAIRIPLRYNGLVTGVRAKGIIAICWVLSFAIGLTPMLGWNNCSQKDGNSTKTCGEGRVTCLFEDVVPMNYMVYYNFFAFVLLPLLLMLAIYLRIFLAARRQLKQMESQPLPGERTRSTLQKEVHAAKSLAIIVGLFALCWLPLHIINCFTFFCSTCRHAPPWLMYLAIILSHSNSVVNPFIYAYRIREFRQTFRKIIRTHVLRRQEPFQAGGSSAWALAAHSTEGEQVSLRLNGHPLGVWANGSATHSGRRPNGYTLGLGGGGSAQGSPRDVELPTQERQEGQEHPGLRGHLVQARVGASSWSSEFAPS
# Method notes: Adenosine A2A receptor functional assay ([35S]-GTPγS binding, rat striatal membranes)
# Type: biochemical
# Condition info: agonist mode (effect on basal signal), 1. and 2. Measurement, read-out: IC50 in µM agonist mode
Measured quantity: IC50

Suppose we examine the compound O=c1c(O)c(-c2ccccc2)oc2cc(O)cc(O)c12 ; what IC50 value has been reported? > 80 µM

###

# Target of assay: UniProtKB P29274
# Method notes: Adenosine A2A receptor radioligand binding assay ([125I]-ZM241385 competition, membranes of HEK293 cells)
# Condition info: IC50 1.M, first measurement; [125I]-ZM241385 20000 cpm, 60 min, 37°C
Measured quantity: pIC50
# log scale: pIC50 equals minus log10 of the concentration in mol/L

Below, each entry is followed by its recorded pIC50 result.
COc1cc2oc(-c3ccc(O)cc3)cc(=O)c2c(O)c1OC
5.89
O=C1C[C@@H](c2ccc(O)cc2)Oc2cc(O)cc(O)c21
4.52
O=c1c(O)c(-c2ccc(O)cc2)oc2cc(O)cc(O)c12
5.32
O=c1c(-c2ccc(O)cc2)coc2cc(O)cc(O)c12
5.43
O=c1c(O)c(-c2ccccc2)oc2cc(O)cc(O)c12
6.22
O=c1cc(-c2ccc(O)cc2)oc2cc(O)cc(O)c12
4.49

For O=c1cc(-c2ccccc2)oc2ccccc12 , what is its reported pIC50? 5.39

Query: pIC50; subject: COc1c(O)cc2oc(-c3ccc(O)cc3)cc(=O)c2c1O 5.74

Would you mind telling me what pIC50 value was observed for COc1ccc(-c2cc(=O)c3c(OC)c(OC)c(OC)cc3o2)cc1 ? 5.72

I would be grateful if you could share the reported pIC50 for O=c1c(O)c(-c2ccc(O)c(O)c2)oc2cc(O)cc(O)c12 . 6.22

###

# Target of assay: Human adenosine A1 receptors (Homo sapiens)
# Method notes: biochemical
# Condition info: IC50 1.M, first measurement; [3H]-DPCPX 1 nM, 60 min, 27°C
Overview of reported IC50 across a group of compounds:
Respond numerically; units are µM and should not be typed.

// known answers, use as guide
O=c1c(O)c(-c2ccc(O)cc2)oc2cc(O)cc(O)c12
13
O=c1c(-c2ccc(O)cc2)coc2cc(O)cc(O)c12
25

Let us move to another entry and its IC50.
Item COc1cc2oc(-c3ccc(O)cc3)cc(=O)c2c(O)c1OC has what recorded IC50? 617

###

Catalogue of IC50 values
# Target of assay: human adenosine A2A receptors (Homo sapiens)
# Method notes: Adenosine A2A receptor radioligand binding assay ([125I]-ZM241385 competition, membranes of HEK293 cells)
# Condition info: IC50 Mean, mean of 1.M and 2.M
Reply with just the number (in µM).

O=C1C[C@@H](c2ccc(O)cc2)Oc2cc(O)cc(O)c21 [Naringenin]
27
O=c1c(O)c(-c2ccc(O)c(O)c2)oc2cc(O)cc(O)c12 [Quercetin]
0.9

Which IC50 is listed for COc1cc2oc(-c3ccc(O)cc3)cc(=O)c2c(O)c1OC [Cirsimaritin] ? 1.7

Data request, read-out IC50, for O=c1cc(-c2ccccc2)oc2ccccc12 [Flavone, 2-phenylchromen-4-one] 4.9

Param item = O=c1c(-c2ccc(O)cc2)coc2cc(O)cc(O)c12 [Genistein] ; retrieve measured IC50. 4.5

Which IC50 value is on record for COc1c(O)cc2oc(-c3ccc(O)cc3)cc(=O)c2c1O [Hispidulin] ? 2.5

Name the reported IC50 value associated with the compound O=c1c(O)c(-c2ccccc2)oc2cc(O)cc(O)c12 [Galangin] 0.7

Data request, read-out IC50, for COc1ccc(-c2cc(=O)c3c(OC)c(OC)c(OC)cc3o2)cc1 [Tetramethylscutallarein, Scutallarein tetramethyl ether] 1.6

What value of IC50 has been recorded for this entry: O=c1cc(-c2ccc(O)cc2)oc2cc(O)cc(O)c12 [Apigenin] 33

So what does the record say about IC50 for O=c1c(O)c(-c2ccc(O)cc2)oc2cc(O)cc(O)c12 [Kaempferol] ? 4.2
